Cited source: patent US12686690B2

- System name: hOX2R (Homo sapiens, UniProt O43614)
- Sequence (O43614 whole entry): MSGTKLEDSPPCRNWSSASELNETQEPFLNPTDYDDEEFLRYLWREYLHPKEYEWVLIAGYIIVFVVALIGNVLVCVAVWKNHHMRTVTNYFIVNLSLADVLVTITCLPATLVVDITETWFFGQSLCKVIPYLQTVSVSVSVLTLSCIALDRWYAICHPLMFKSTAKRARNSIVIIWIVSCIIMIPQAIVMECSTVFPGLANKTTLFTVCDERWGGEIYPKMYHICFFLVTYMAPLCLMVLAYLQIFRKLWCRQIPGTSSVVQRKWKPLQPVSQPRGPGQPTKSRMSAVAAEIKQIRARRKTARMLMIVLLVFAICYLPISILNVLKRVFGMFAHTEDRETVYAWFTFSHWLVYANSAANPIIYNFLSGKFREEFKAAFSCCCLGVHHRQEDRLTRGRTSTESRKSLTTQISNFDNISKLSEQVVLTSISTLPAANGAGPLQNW
- Experimental protocol: hOX2R IPone assay (orexin receptor agonism)
- Test context: orexin receptor agonist, IPone readout; read-out: hOX2R_IPone EC50
What EC50 was measured for each of the following?

Examples with answers:
> print(dat)
                                   molecule  property  endpoint.value
1  CCN1C(=O)N[C@@H](CCC(F)(F)F)CCCCCOc2nc(cn3cc(C)nc23)-c2cc(nc3ccoc23)C1C (single isomer, unassigned) [Example 75B]      EC50            6 nM
2  CCN1C(=O)N[C@@H](CCC(F)(F)F)CCCCCOc2cc(cn3ccnc23)-c2cc(cnc2OC)[C@H]1C [Example 91]      EC50          0.6 nM
3  CCN1Cc2ccc(OC)c(c2)-c2cn3ccnc3c(n2)OCCCC[C@H](CCC(F)(F)F)NC1=O [Example 44]      EC50            1 nM
4  CCN1C(=O)N[C@@H](CCC(F)(F)F)CCCCCOc2nc(cn3ccnc23)-c2cc(ccn2)[C@H]1C [Example 113B]      EC50          3.3 nM
5  CCN1C(=O)N[C@@H](CCC(F)(F)F)CCCCCOc2nc(cn3ccnc23)C2=CN=C(O2)C1C (stereo partly shown) [Example 108]      EC50         14.9 nM
6  CCN1C(=O)N[C@@H](CCC(F)(F)F)CCCCCOc2nc(cn3ccnc23)C2=CN=C(S2)C1C (stereo partly shown) [Example 95]      EC50         25.4 nM
7  CCN1C(=O)N[C@@H](CCC(F)(F)F)CCCCCOc2nc(nn3c(C)cnc23)-c2cc(ncc2OC)[C@H]1C [Example 124]      EC50         3.99 nM
8  CCN1C(=O)NC(CC(O)C(F)(F)F)CCCCCOc2cn3ncnc3c(n2)-c2cc(ncc2OC)C1C (stereo not shown) [Example 130]      EC50         1.48 nM

// batch mode: one EC50 value per listed entry
1. CCN1C(=O)NC(CC2CC2(F)F)CCCCCOc2nc(cn3ccnc23)-c2cc(ncc2OC)[C@H]1C (single isomer, unassigned) [Example 59B]
2. CCN1C(=O)N[C@@H](CCC(F)(F)F)CCCCOc2nc(cn3ccnc23)-c2cc(ncc2OC)C1C (stereo in doubt) [Example 40]
3. CCN1C(=O)NC(CC2CCOC2)CCCCCOc2nc(cn3ccnc23)-c2cc(ncc2OC)[C@H]1C (single isomer, unassigned) [Example 67B]
4. CCN1C(=O)N[C@@H](CCC(F)(F)F)CCCCCOc2nc(cn3ccnc23)C2=NC=C(O2)C1C (single isomer, unassigned) [Example 104A]

Result:
["3.1 nM", "1.2 nM", "2.1 nM", "4910 nM"]

Problem: Find EC50 (hOX2R (Homo sapiens, UniProt O43614)) for the entry CCN1C(=O)NC(CC2(C(F)(F)F)CC2)CCCCCOc2nc(cn3ccnc23)-c2cc(ncc2OC)[C@H]1C (single isomer, unassigned) [Example 66A]
Result: 9.6 nM
